- Target system: THR alpha (Homo sapiens)
- Construct: expressed in transfected cells; host or cells: HEK293T (ATCC CRL-3216)
- Sequence (P10827 1-410 isoform P10827-2): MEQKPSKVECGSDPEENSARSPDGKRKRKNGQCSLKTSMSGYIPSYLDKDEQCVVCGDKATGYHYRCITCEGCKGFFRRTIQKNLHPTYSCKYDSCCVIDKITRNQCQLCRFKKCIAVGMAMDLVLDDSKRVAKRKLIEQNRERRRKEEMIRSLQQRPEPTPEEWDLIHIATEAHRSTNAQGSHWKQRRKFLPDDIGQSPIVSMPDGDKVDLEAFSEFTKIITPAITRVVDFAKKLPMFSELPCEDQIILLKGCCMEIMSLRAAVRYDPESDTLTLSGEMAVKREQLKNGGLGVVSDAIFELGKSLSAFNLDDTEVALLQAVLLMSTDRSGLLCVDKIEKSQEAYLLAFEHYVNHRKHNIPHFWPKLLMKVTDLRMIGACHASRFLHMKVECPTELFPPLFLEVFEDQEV
- Sequence (P19793 whole entry partner): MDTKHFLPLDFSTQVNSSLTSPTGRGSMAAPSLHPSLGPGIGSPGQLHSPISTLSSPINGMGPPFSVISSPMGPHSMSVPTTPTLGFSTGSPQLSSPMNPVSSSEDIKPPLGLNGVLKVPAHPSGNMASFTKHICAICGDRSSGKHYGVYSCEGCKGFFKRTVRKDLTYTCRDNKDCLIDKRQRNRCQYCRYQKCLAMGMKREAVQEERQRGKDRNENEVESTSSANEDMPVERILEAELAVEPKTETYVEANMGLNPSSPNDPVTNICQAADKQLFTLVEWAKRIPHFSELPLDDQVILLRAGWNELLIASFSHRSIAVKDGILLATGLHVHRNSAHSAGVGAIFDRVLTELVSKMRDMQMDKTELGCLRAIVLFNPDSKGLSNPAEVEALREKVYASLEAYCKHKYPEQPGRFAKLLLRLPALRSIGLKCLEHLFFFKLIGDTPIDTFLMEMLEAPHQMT
- Assay summary: HEK293T THR alpha/RXR luciferase reporter assay (Assay 2)
- Type: cell-based
- Cond: Table 4; THR-alpha; Assay 2; read-out: Activity category Assay 2 (EC50, THR-alpha agonist activity)
- Method: HEK293T Reporter THRalpha/Beta/RXR Reporter Assay (Assay 2) The purpose of this assay is to evaluate the effect of compounds on the thyroid hormone nuclear receptor pathway in HEK293T cells. […] Transfected cells are stimulated with test compounds for 18-24 hours before activation of the thyroid hormone pathway is measured via a luciferase read-out. Procedure. […] Percent agonism is calculated using the following equation: 100× (sample-negative control)/(positive control-negative control).
pEC50: −log10 of the molar value.
pEC50: recorded values
Quantity kind: pEC50

1) Cc1cc(-n2ncc(=O)[nH]c2=O)cc(C)c1Cc1ccc2[nH]cc(C(C)C)c2n1
> 7.30
2) Cc1cccc(-c2cc(Oc3c(Cl)cc(-n4ncc(=O)[nH]c4=O)cc3Cl)n[nH]c2=O)c1
6.60 to 7.30
3) CC(C)c1n[nH]c2nnc(Oc3c(Cl)cc(-n4nc(N)c(=O)[nH]c4=O)cc3Cl)cc12
6.00 to 6.60
4) CC(c1cc(Oc2c(Cl)cc(-n3nc(N)c(=O)[nH]c3=O)cc2Cl)n[nH]c1=O)C1CC(F)(F)C1 (single isomer, unassigned) [Compound 61-A]
6.60 to 7.30
5) Cc1cc(-n2nc(C#N)c(=O)[nH]c2=O)cc(C)c1Cc1ccc2[nH]cc(C(C)C)c2c1
6.00 to 6.60
6) N#Cc1nn(-c2cc(Cl)c(Oc3ccc4[nH]cc(C5CCCC5)c4c3)c(Cl)c2)c(=O)[nH]c1=O
5.00 to 6.00
7) Nc1nn(-c2cc(Cl)c(Oc3cc(-c4cccc(OC(F)F)c4)c(=O)[nH]n3)c(Cl)c2)c(=O)[nH]c1=O
6.60 to 7.30
8) CCc1cccc(-c2cc(Oc3c(Cl)cc(-n4nc(N)c(=O)[nH]c4=O)cc3Cl)n[nH]c2=O)c1
6.60 to 7.30
9) Nc1nn(-c2cc(Cl)c(Oc3cc(-c4ccccc4)c(=O)[nH]n3)c(Cl)c2)c(=O)[nH]c1=O
6.00 to 6.60
10) Nc1nn(-c2cc(Cl)c(Oc3cc(-c4ccc5ncccc5c4)c(=O)[nH]n3)c(Cl)c2)c(=O)[nH]c1=O
< 5.00
11) CC(C)c1c[nH]c2nnc(Oc3c(Cl)cc(-n4nc(C#N)c(=O)[nH]c4=O)cc3Cl)cc12
< 5.00
12) COC(=O)c1c[nH]c2ccc(Oc3c(Cl)cc(-n4nc(C#N)c(=O)[nH]c4=O)cc3Cl)cc12
< 5.00
13) O=c1cc(-c2ccc3c(c2)CCCC3)c(Oc2c(Cl)cc(-n3ncc(=O)[nH]c3=O)cc2Cl)n[nH]1
< 5.00
14) Nc1nn(-c2cc(Cl)c(Oc3cc(-c4ccc5ccccc5c4)c(=O)[nH]n3)c(Cl)c2)c(=O)[nH]c1=O
< 5.00

====

- Target system: human thyroid receptor alpha ligand-binding domain (LBD) (Homo sapiens)
- Construct: purchased Invitrogen
- Assay summary: TR-FRET thyroid receptor alpha coactivator assay (THR biochemical assay, Assay 1)
- Cond: Table 5, THRα, read-out: Activity category Assay 1 THRα (Emax)
Quantity kind: Emax

1. Nc1nn(-c2cc(Cl)c(Oc3cc(C4(c5ccccc5)CC4)c(=O)[nH]n3)c(Cl)c2)c(=O)[nH]c1=O
< 50%
2. Nc1nn(-c2cc(Cl)c(Oc3cc(-c4ccc5c(c4)CCCC5)c(=O)[nH]n3)c(Cl)c2)c(=O)[nH]c1=O
< 50%
3. Nc1nn(-c2cc(Cl)c(Oc3cc(Cc4ccc(O)cn4)c(=O)[nH]n3)c(Cl)c2)c(=O)[nH]c1=O
< 50%
4. Cc1cc(-n2nc(N)c(=O)[nH]c2=O)cc(C)c1Cc1ccc2[nH]c(=O)n(C(C)C)c2c1
< 50%
5. Cc1cncc(-c2cc(=O)[nH]nc2Oc2c(Cl)cc(-n3ncc(=O)[nH]c3=O)cc2Cl)c1
< 50%
6. Cc1cccc(-c2cc(Oc3c(Cl)cc(-n4nc(N)c(=O)[nH]c4=O)cc3Cl)n[nH]c2=O)c1
< 50%
7. Nc1nn(-c2cc(Cl)c(Oc3cc(Cc4ccc(=O)[nH]n4)c(=O)[nH]n3)c(Cl)c2)c(=O)[nH]c1=O
< 50%
8. Cc1cc(-n2nc(N)c(=O)[nH]c2=O)cc(C)c1Oc1cc(C(C)C)c(=O)[nH]n1
> 75%
9. Nc1nn(-c2cc(Cl)c(Oc3n[nH]c(=O)cc3-c3ccc4ccnn4c3)c(Cl)c2)c(=O)[nH]c1=O
< 50%
10. CC1(C)C(=O)Nc2ccc(Oc3c(Cl)cc(-n4nc(N)c(=O)[nH]c4=O)cc3Cl)cc21
> 75%
11. C[C@H](c1cc(Oc2c(Cl)cc(-n3nc(N)c(=O)[nH]c3=O)cc2Cl)n[nH]c1=O)C1CCC1
50 to 75%
12. Nc1nn(-c2cc(Cl)c(Oc3cc(C4CCc5ccccc5C4)c(=O)[nH]n3)c(Cl)c2)c(=O)[nH]c1=O (stereo not drawn)
< 50%
13. Nc1nn(-c2cc(Cl)c(Oc3n[nH]c(=O)cc3-c3cccc(Cl)c3)c(Cl)c2)c(=O)[nH]c1=O
< 50%
14. CC(C)c1cc(Oc2c(Cl)cc(-n3nc(N)c(=O)[nH]c3=O)cc2Br)n[nH]c1=O
50 to 75%
15. Cc1cc(-c2cc(Oc3c(Cl)cc(-n4ncc(=O)[nH]c4=O)cc3Cl)n[nH]c2=O)ccn1
< 50%

====

- Target system: human thyroid receptor alpha ligand-binding domain (LBD) (Homo sapiens, UniProt P10827)
- Construct: purchased Invitrogen
- Sequence (P10827 163-410 isoform P10827-2 limits assumed, other chains not shown): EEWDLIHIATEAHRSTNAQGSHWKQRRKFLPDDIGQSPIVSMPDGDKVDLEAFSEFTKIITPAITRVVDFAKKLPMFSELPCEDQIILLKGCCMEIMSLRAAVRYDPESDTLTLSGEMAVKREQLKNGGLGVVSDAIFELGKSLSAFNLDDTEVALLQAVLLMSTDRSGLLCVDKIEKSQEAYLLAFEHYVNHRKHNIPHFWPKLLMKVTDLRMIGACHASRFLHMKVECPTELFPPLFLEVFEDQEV
- Assay summary: TR-FRET thyroid receptor alpha coactivator assay (THR biochemical assay, Assay 1)
- Cond: Table 5, THRα, read-out: Activity category Assay 1 THRα (Emax)
Emax: recorded values
Quantity kind: Emax

1. Nc1nn(-c2cc(Cl)c(Oc3n[nH]c(=O)cc3-c3ccc4ccccc4c3)c(Cl)c2)c(=O)[nH]c1=O [Compound 67-A]
< 50%
2. Nc1nn(-c2cc(Cl)c(Oc3ccc4c(c3)C3(CCCCC3)C(=O)N4)c(Cl)c2)c(=O)[nH]c1=O [Compound 85]
< 50%
3. Nc1nn(-c2cc(Cl)c(Oc3cc([C@H]4C[C@H](O)C4)c(=O)[nH]n3)c(Cl)c2)c(=O)[nH]c1=O [Compound 88-A]
< 50%
4. Cc1cc(-n2nc(C#N)c(=O)[nH]c2=O)cc(C)c1Cc1ccc2[nH]nc(C(C)C)c2c1 [Compound 57]
< 50%
5. CC(C)Cc1c[nH]c2ccc(Oc3c(Cl)cc(-n4nc(C#N)c(=O)[nH]c4=O)cc3Cl)cc12 [Compound 49]
< 50%
6. N#Cc1nn(-c2cc(Cl)c(Oc3ccc4[nH]cc(Cc5ccccc5)c4c3)c(Cl)c2)c(=O)[nH]c1=O [Compound 46]
< 50%
7. N#Cc1nn(-c2cc(Cl)c(Oc3ccc4[nH]cc(C#N)c4c3)c(Cl)c2)c(=O)[nH]c1=O [Compound 17]
< 50%
8. CC(C)c1c[nH]c2nnc(Oc3c(Cl)cc(-n4nc(C#N)c(=O)[nH]c4=O)cc3Cl)cc12 [Compound 52]
< 50%
9. CC1(C)CC(c2cc(Oc3c(Cl)cc(-n4nc(N)c(=O)[nH]c4=O)cc3Cl)n[nH]c2=O)CCO1 (centres unmarked) [Compound 76]
< 50%
10. C[C@H]1C[C@@H](c2cc(Oc3c(Cl)cc(-n4nc(N)c(=O)[nH]c4=O)cc3Cl)n[nH]c2=O)C1 (single isomer, unassigned) [Compound 86-B]
< 50%
11. O=c1cnn(-c2cc(Cl)c(Oc3cc(-c4ccc5c(c4)CCCC5)c(=O)[nH]n3)c(Cl)c2)c(=O)[nH]1 [Compound 91]
50 to 75%
12. N#Cc1nn(-c2cc(Cl)c(Oc3ccc4[nH]cc(-c5ccccc5)c4c3)c(Cl)c2)c(=O)[nH]c1=O [Compound 7]
< 50%
13. Nc1nn(-c2cc(Cl)c(Oc3cc(-c4ccc5ccccc5c4)c(=O)[nH]n3)c(Cl)c2)c(=O)[nH]c1=O [Compound 67]
< 50%
14. Cc1cc(-c2cc(Oc3c(Cl)cc(-n4nc(N)c(=O)[nH]c4=O)cc3Cl)n[nH]c2=O)ccc1Cl [Compound 116]
< 50%

====

- Target system: human thyroid receptor beta ligand-binding domain (LBD) (Homo sapiens, UniProt P10828)
- Construct: purchased Invitrogen
- Sequence (P10828 217-461 limits assumed): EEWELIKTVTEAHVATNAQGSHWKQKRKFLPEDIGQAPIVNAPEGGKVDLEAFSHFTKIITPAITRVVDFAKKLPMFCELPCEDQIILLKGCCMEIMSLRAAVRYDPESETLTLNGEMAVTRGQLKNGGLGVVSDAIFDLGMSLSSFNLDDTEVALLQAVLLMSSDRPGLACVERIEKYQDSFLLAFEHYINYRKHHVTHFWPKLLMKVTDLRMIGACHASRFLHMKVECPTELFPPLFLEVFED
- Assay summary: TR-FRET thyroid receptor beta coactivator assay (THR biochemical assay, Assay 1)
- Cond: Table 5; Assay 1; THRβ; read-out: Activity category Assay 1 THRβ (Emax)
Quantity kind: Emax

1. CC(C)c1cc(Oc2c(Br)cc(-n3nc(N)c(=O)[nH]c3=O)cc2Br)n[nH]c1=O
50 to 75%
2. CC(c1cc(Oc2c(Cl)cc(-n3nc(N)c(=O)[nH]c3=O)cc2Cl)n[nH]c1=O)C1CC(F)(F)C1 (stereo not shown) [Compound 61]
< 50%
3. CC(C)c1cc(Oc2c(Cl)cc(-n3nc(CS(C)(=O)=O)c(=O)[nH]c3=O)cc2Cl)n[nH]c1=O
< 50%
4. CC(C)c1cc(Oc2c(Cl)cc(-n3nc(N)c(=O)[nH]c3=O)cc2Br)n[nH]c1=O
50 to 75%
5. O=c1cnn(-c2cc(Cl)c(Oc3cc(-c4ccc5sccc5c4)c(=O)[nH]n3)c(Cl)c2)c(=O)[nH]1
< 50%
6. CC(C)c1c[nH]c2ccc(Oc3c(Cl)cc(-n4nc(C#N)c(=O)[nH]c4=O)cc3Cl)cc12
50 to 75%
7. Cc1cccc(-c2cc(Oc3c(Cl)cc(-n4ncc(=O)[nH]c4=O)cc3Cl)n[nH]c2=O)c1
< 50%
